System: Trypanosoma cruzi
Test: Antitrypanosomal activity against Trypanosoma cruzi epimastigotes at 10 ug/ml
Format: functional
VALUE_TYPE: Activity (%)
Answer with a number only, understood to be in %.

CN1CC(=O)N(C)c2cc([N+](=O)[O-])ccc21	21.6

Task: # lookup: Activity of O=C(CCl)Nc1cc([N+](=O)[O-])ccc1N1CCCCC1
Output: 34.8

Task: Can you share its Activity? I mean this compound: CN1C(=O)CN(CCCCCCl)c2ccc([N+](=O)[O-])cc21
Output: 82.2

Task: GET /values?readout=Activity&item= O=C(CN1CCCCC1)Nc1cc([N+](=O)[O-])ccc1Cl
Output: 1.3

Task: Return reported Activity; argument: O=C1Nc2cc([N+](=O)[O-])ccc2N2Cc3ccccc3CC12 (stereo not given)
Output: 29.4

---

Tested on: Trypanosoma cruzi
Test: Antitrypanosomal activity against Trypanosoma cruzi epimastigotes at 1 ug/ml
Assay type: functional
VALUE_TYPE: Activity
Provide a numeric answer, followed by its unit.

As a guide, the following entries are already answered.
O=C(CCl)Nc1cc([N+](=O)[O-])ccc1N1CCCCC1	7.1%
O=C(CN1CCCCC1)Nc1cc([N+](=O)[O-])ccc1Cl	21.9%
CN1CC(=O)N(C)c2cc([N+](=O)[O-])ccc21	22.5%
O=C1Nc2cc([N+](=O)[O-])ccc2N2CCCC12 (stereo unspecified)	25.6%
CC1CS(=O)(=O)CCN1/N=C/c1ccc([N+](=O)[O-])o1 (stereo unspecified)	75.5%

Now examine the next entry.
Task: Form field: reported Activity of CN1C(=O)C[N+](C)(C)c2ccc([N+](=O)[O-])cc21.[Cl-]
Output: 0.9%

---

Test system: Trypanosoma cruzi
Assay: Antitrypanosomal activity against Trypanosoma cruzi epimastigotes at 10 ug/ml
Type: functional
VALUE_TYPE: Activity (%)
Reply with just the number (in %).

Before answering, review these 3 worked examples.
CC1CS(=O)(=O)CCN1/N=C/c1ccc([N+](=O)[O-])o1 (stereo unspecified)	90
O=C1Nc2cc([N+](=O)[O-])ccc2N2CCCCC12 (stereo unspecified)	30.9
O=C1CN(CCCCCCCl)c2ccc([N+](=O)[O-])cc2N1	72.1

Task: Form field: reported Activity of CN1C(=O)C[N+](C)(C)c2ccc([N+](=O)[O-])cc21.[Cl-]
Output: 9

Task: Using the record for O=C(CN1CCCCC1)Nc1cc([N+](=O)[O-])ccc1F , report its Activity.
Output: 4.4

Task: Would you kindly share the measured Activity for O=C1Nc2cc([N+](=O)[O-])ccc2N2CCCC12 (stereo unspecified) ?
Output: 70.3

---

Measured Activity by item
Tested on: Trypanosoma cruzi
Assay: Antitrypanosomal activity against Trypanosoma cruzi epimastigotes at 100 ug/ml
Assay type: functional
Reply numerically in %, unit not repeated.

Some compounds with recorded Activity:
O=C1CN(CCCCCCCl)c2ccc([N+](=O)[O-])cc2N1	90.9
CN1C(=O)C[N+](C)(C)c2ccc([N+](=O)[O-])cc21.[Cl-]	67.2
CN1C(=O)CN(CCCCCCl)c2ccc([N+](=O)[O-])cc21	83.3
CC1CS(=O)(=O)CCN1/N=C/c1ccc([N+](=O)[O-])o1 (stereo unspecified)	98.7
O=C1Nc2cc([N+](=O)[O-])ccc2N2CCCCC12 (stereo unspecified)	77

Task: GET /values?readout=Activity&system=Trypanosoma cruzi&item= CN1CC(=O)N(C)c2cc([N+](=O)[O-])ccc21
Output: 72.7

Task: Query Activity on Trypanosoma cruzi for O=C1Nc2cc([N+](=O)[O-])ccc2N2CCCC12 (stereo unspecified)
Output: 90.5

Task: Query the reported Activity for Trypanosoma cruzi; item: O=C(CN1CCCCC1)Nc1cc([N+](=O)[O-])ccc1F
Output: 14.3

Task: Provide the documented Activity with Trypanosoma cruzi as the system for O=C1Nc2cc([N+](=O)[O-])ccc2N2Cc3ccccc3CC12 (stereo unspecified)
Output: 72.1

Task: Entry O=C(CN1CCCCC1)Nc1cc([N+](=O)[O-])ccc1Cl , system Trypanosoma cruzi: what Activity was measured?
Output: 11

Task: Please tell me: Activity of O=C(CCl)Nc1cc([N+](=O)[O-])ccc1N1CCCCC1 , system Trypanosoma cruzi?
Output: 84
